Tested on: SF-295
test name: NCI tumour cell line growth inhibition, 48 h
Calls of active or inactive are those of the source. No stated cut-off is given here; in the data, active = GI50 up to about 1.1 µM and inactive = higher.
Recorded GI50 by entry

CCCCCCCC(=O)OC(CBr)COC(=O)C(C)(C)C (configuration not stated): > 100 µM (inactive)
CC(C)C(O)(C(C)C)C(C)C: > 100 µM (inactive)
COC(=O)c1cnc(Cl)c([N+](=O)[O-])c1: 19 µM (inactive)
CSC1NC=Nc2c1sc(=S)n2-c1ccccc1 (configuration not stated): > 100 µM (inactive)
COc1ccc(/C=C2\Cc3ccccc3C2=O)cc1OC: 60.8 µM (inactive)

Q: What reported GI50 corresponds to `CCCn1c2ccccc2c2ccc3c(c21)C(=O)C=CC3=O` on SF-295?
A: > 10 µM (inactive)

Q: Further, for c1ccc2[nH]c(CNc3ccc(C4C[Se]N=N4)cc3)nc2c1 (configuration not stated) ?
A: 28.4 µM (inactive)

Q: Further, for `OCCCCn1cc(Cn2ncc3c(NCc4ccccc4)ncnc32)nn1` ?
A: > 100 µM (inactive)

Q: Further, for `COc1ccc(C(=O)/C=C2\C(=O)Nc3ccc(Br)cc32)cc1` ?
A: 16.2 µM (inactive)

Q: Further, for `CCNCC(=O)Nc1ccc2c(c1)C(=O)c1ccc(NC(=O)CNCC)cc1C2=O` ?
A: 3.33 µM (inactive)

Q: Further, for CCOc1ccc(NC(=O)CC2Sc3ccccc3NC2=O)cc1 (configuration not stated) ?
A: > 100 µM (inactive)

Q: Further, for `CC(=O)Nc1ccc(-c2nnc(SCC(=O)Nc3ccc(Cl)cc3Cl)o2)cc1` ?
A: 57.8 µM (inactive)

----------
System: HL-60
test name: NCI tumour cell line growth inhibition, 48 h
Activity calls are given as the source filed them. No stated cut-off is given here; in the data, active = GI50 up to about 1.1 µM and inactive = higher.
Please state which outcome applies, choosing from class 1 = active, class 0 = inactive

Example cases with answers are listed next.
C[n+]1c(-c2ccccc2)cc2/c(=C\c3ccc([N+](=O)[O-])cc3)c3ccccc3n21: class 1
Cc1nc(C(N)=S)sc1/C(CC(=O)C(=O)Nc1cccc2ccc(O)cc12)=N\NC(=O)c1ccncc1: class 0

Q: Lab log entry: Clc1cc2ncn(C3CCCCO3)c2cc1Cl (stereo not given) — outcome as called in the assay?
A: class 0

Q: Further, for CCOC(=O)CP(=S)(S)c1ccccc1 (stereo not given) ?
A: class 0

Q: Further, for COc1ccc(/C(=N/NC(N)=O)C(c2ccc(OC)cc2)C2C(=O)Oc3ccccc32)cc1 (stereo not given) ?
A: class 0

----------
System: M14
test name: NCI tumour cell line growth inhibition, 48 h
The source made the active and inactive calls. Cut-off read from the data, not from the text of the source: active = GI50 up to about 1.1 µM and inactive = higher.
Recorded GI50 by entry

Some entries whose results are on file:
O=C1OC(c2ccc([N+](=O)[O-])cc2)=N/C1=C\c1ccc(Cl)cc1: > 100 µM (inactive)
C1=CCC[C@@H]2CN3CCCC/C=C\CCCC[C@H]4C[C@H](CN(CCCCCCCC1)C4)[C@H]2CC3: 8.97 µM (inactive)

Q: What reported GI50 corresponds to COc1cc2c3c4c1OCc1c5c(cc(c1-4)CC3[N+](C)(C)CC2)OCO5 (stereo not given) on M14?
A: > 100 µM (inactive)

Q: Further, for `CCNC(=O)OCc1c(COC(=O)NCC)c(-c2ccc(Cl)c(Cl)c2)n2c1CCC2` ?
A: 11.1 µM (inactive)

Q: Further, for `CCOC(=O)c1nc2ccccc2nc1Oc1ccc(F)cc1` ?
A: > 100 µM (inactive)

Q: Further, for `COc1ccc(-c2nc(N3CCCC3)no2)cc1` ?
A: 81.3 µM (inactive)

Q: Further, for `CCOC(=O)c1ccc(NC(=O)O/N=C(/Cl)CC)cc1` ?
A: 2.14 µM (inactive)

Q: Further, for C=C(CO)C(=O)OC1CC(=C)C2CC(O)C(C)C2C2OC(=O)C(=C)C12 (stereo not given) ?
A: 17.3 µM (inactive)

Q: Further, for `Oc1ccccc1/C=N/c1ccc(Oc2ccc(Cl)cc2)c(Cl)c1` ?
A: 18.5 µM (inactive)

Q: Further, for CC(=O)Nc1ccc(N2C(=O)CS(=O)(=O)C2c2cccc(Oc3ccccc3)c2)cc1 (stereo not given) ?
A: 18 µM (inactive)

----------
System: DMS-273
test name: NCI tumour cell line growth inhibition, 48 h
Calls of active or inactive are those of the source. No stated cut-off is given here; in the data, active = GI50 up to about 1.1 µM and inactive = higher.
Please state which outcome applies, choosing from yes for active, no for inactive

Example cases with answers are listed next.
COc1cc(/C=C/c2ccc(OC(C)=O)cc2)cc(OC)c1OC: no
Cc1ccc(C2=Nc3ccccc3NC(=O)C2)cc1: no
O=c1[nH]nc2c3n[nH]c(=O)n3c3ccccc3n12: no
OC12CC/C(=N/OCc3ccccc3)CC1c1ccccc12 (centres undefined): no
OCC[N+]12CCCN1CCC2: no

Q: Lab log entry: CCCCCCCC(=O)OC(CBr)COC(=O)C(C)(C)C (centres undefined) — outcome as called in the assay?
A: no

Q: Further, for `O=C1C=C(Nc2ccccc2C(=O)CC(=O)C(=O)Nc2cccc([N+](=O)[O-])c2)c2ccccc2C1=O` ?
A: no

----------
Tested on: SNB-19
test name: NCI tumour cell line growth inhibition, 48 h
Activity calls are given as the source filed them. Rule as the data show it: active = GI50 up to about 1.1 µM and inactive = higher.
Recorded GI50 by entry

CC1OC(n2cc(F)c(=O)[nH]c2=O)C=CC1=O (stereo unspecified): 17.4 µM (inactive)
Cc1ccc2c(O)cc(-c3ccc(F)cc3)nc2n1: 65.9 µM (inactive)
CC(C)C(Sc1nc(-c2ccccc2)c(-c2ccccc2)[nH]1)c1n[nH]c(=S)n1-c1ccccc1 (stereo unspecified): 25 µM (inactive)
CCCCS(=O)(=O)CCC(N)C(=O)O (stereo unspecified): > 100 µM (inactive)
CC(C)C(O)(C(C)C)C(C)C: > 100 µM (inactive)
Cc1nn(-c2ccccc2)c2c1C(c1cc3ccccc3nc1Cl)NC(=O)N2 (stereo unspecified): 20.7 µM (inactive)
Cc1nn(-c2cc(Cl)ccc2[N+](=O)[O-])c(C)c1Cl: > 100 µM (inactive)
C[n+]1ccccc1/C1=c2\cc/c([nH]2)=C(\c2cccc[n+]2C)C2=N/C(=C(/c3cccc[n+]3C)C3C=CC(N3)/C(c3cccc[n+]3C)=C3/C=CC1=N3)C=C2: > 100 µM (inactive)

Q: I am curious: what GI50 value has been reported for `CCOc1ccc(/C=N/[N+](C)(C)C)cc1OCC` ?
A: > 10 µM (inactive)

Q: Further, for `CC(=O)OCC(=O)OC[C@H](OCc1ccccc1)[C@@H]1[C@H](OC(C)=O)C(=O)N1Cc1ccccc1` ?
A: > 100 µM (inactive)

Q: Further, for `COc1ccc(-c2nc(N3CCCC3)no2)cc1` ?
A: 44.1 µM (inactive)

----------
Tested on: MDA-MB-435
test name: NCI tumour cell line growth inhibition, 48 h
Calls of active or inactive are those of the source. No stated cut-off is given here; in the data, active = GI50 up to about 1.1 µM and inactive = higher.
Please state which outcome applies, choosing from active, inactive

Q: Lab log entry: `CSc1ccc2c(cc1=O)[C@@H](NC(=O)c1ccc(N)cc1)CCc1cc(O)c(O)c(O)c1-2` — outcome as called in the assay?
A: inactive

Q: Further, for CC1(C)CC(=O)c2c(-c3ccc(Cl)cc3)c(C#N)c(=S)n(C3OC(CO)C(O)C(O)C3O)c2C1 (stereo not given) ?
A: inactive

Q: Further, for `S=C(NN=C1NCCCCN1)Nc1ccccc1` ?
A: inactive

Q: Further, for Cc1ccc(S(=O)(=O)N/N=C2\CC3C4CCC3C2C4)cc1 (stereo not given) ?
A: inactive

Q: Further, for `C=C1C(=O)O[C@@H]2C[C@@]3(C)CC(=O)C=C(C)[C@@H]3C[C@H]12` ?
A: inactive

Q: Further, for `COC(=O)CCc1ccc2c(c1)CC1(Cc3ccccc3C1)C2` ?
A: inactive

Q: Further, for `CCOC(=O)c1nc2ccccc2nc1Oc1ccc(F)cc1` ?
A: inactive

Q: Further, for CCCCCCCCCCCCCCCCOC[C@H](COC(c1ccccc1)(c1ccccc1)c1ccccc1)O[PH](=S)OC (stereo not given in full) ?
A: inactive

----------
Test system: U-251
test name: NCI tumour cell line growth inhibition, 48 h
Activity calls are given as the source filed them. Cut-off read from the data, not from the text of the source: active = GI50 up to about 1.1 µM and inactive = higher.
observed property: GI50

Some entries whose results are on file:
C[C@@H](C1CC[C@H]2[C@@H]3[C@@H]4O[C@@H]4[C@@]4(O)CC=CC(=O)[C@]4(C)[C@H]3C[C@H](O)[C@]12C)[C@H]1C[C@]2(C)O[C@]2(C)C(=O)O1 (stereo not given in full): > 100 µM (inactive)
COC(=O)CCC(=O)NC1c2cccc3cccc(c23)Cn2c(=O)n(C)c(=O)n21 (stereo not given): > 100 µM (inactive)
COc1ccc(-c2nnc3n(C)c4ccccc4n3c2=O)cc1: 27.7 µM (inactive)
COC(=O)N/N=C(\C)CC(=O)Nc1ccc(Cl)cc1: > 100 µM (inactive)

As a next step, examine the compound that follows.
Q: I am curious: what GI50 value has been reported for Cc1ccc(/N=N/C(C2=NC(=O)CS2)c2nc3ccccc3[nH]2)cc1 (stereo not given) ?
A: > 100 µM (inactive)
